Target: human glucagon receptor (human, UniProt P47871 26-477)
Assay: cell-based or functional assay
assay readout: EC50, cAMP

Below, 2 binders whose answers are already recorded.
binder | EC50, cAMP
YXEGTXTSDXSIXLDXKAQXEFIXXLIEGGKSSGAPPPS (Aib2, αMeF(2F)6, 4Pal10, αMeL13, Orn16, Aib20, D-Glu24, αMeY25, K17 and K31: K((γ-Glu)-AEEA-CO-(CH2)12-CO2H), C-terminal NH2) [Example 42] | > 9.95 µM
YXEGTXTSDXSIXLDXKAQXEFIKXLIEGGPSSGAPPPS (Aib2, αMeF(2F)6, 4Pal10, αMeL13, Orn16, Aib20, αMeY25, K17 and K24: K(AEEA2-(γ-Glu)-CO-(CH2)12-CO2H), C-terminal NH2) [Example 16] | > 9.95 µM

We next turn to a different binder, shown below.
What does the record list as EC50, cAMP for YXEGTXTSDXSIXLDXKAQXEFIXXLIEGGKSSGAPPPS (Aib2, αMeF(2F)6, 4Pal10, αMeL13, Orn16, Aib20, D-Glu24, αMeY25, K17 and K31: K(AEEA2-(γ-Glu)-(4-(4-tert-butylphenyl)butanoyl)), C-terminal NH2) [Example 4] ?
> 9.95 µM
